targetOfAssay: UniProt:P37058
Sequence (whole entry): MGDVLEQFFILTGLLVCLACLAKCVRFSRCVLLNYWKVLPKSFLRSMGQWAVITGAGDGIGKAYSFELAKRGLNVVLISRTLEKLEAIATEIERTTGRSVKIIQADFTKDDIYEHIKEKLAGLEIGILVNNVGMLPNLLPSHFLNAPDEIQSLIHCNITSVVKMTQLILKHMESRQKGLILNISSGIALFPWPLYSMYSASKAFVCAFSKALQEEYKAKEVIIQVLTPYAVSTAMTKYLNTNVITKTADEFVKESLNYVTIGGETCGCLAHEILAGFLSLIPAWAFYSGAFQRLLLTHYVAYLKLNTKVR
methodNotes: Inhibition of 17beta-HSD3 (unknown origin) expressed in human LNCAP cells assessed as reduction in [14C]-testosterone formation from [14C]-4-androstene-3,17-dione at 1 uM measured after 1 hr relative to control
Type: cell-based
observable: inhibition (%)

Study these solved cases before continuing.
- molecule: "CC(=O)[C@H]1CC[C@H]2[C@@H]3CC[C@H]4C[C@@](O)(CN5CC(C)N(S(=O)(=O)c6ccccc6C(F)(F)F)CC5C)CC[C@]4(C)[C@H]3CC[C@]12C (stereo partly drawn)"
  inhibition / %: 42
- molecule: "CC1CN(S(=O)(=O)c2ccccc2C(F)(F)F)C(C)CN1CC(O)c1ccc2c(c1)CC[C@@H]1[C@@H]2CC[C@]2(C)C(=O)CC[C@@H]12 (single isomer, unassigned; diastereomer B)"
  inhibition / %: 100
- molecule: "CC1CN(S(=O)(=O)c2ccccc2C(F)(F)F)C(C)CN1C[C@@]1(O)CC[C@H]2[C@@H](CC[C@@H]3[C@@H]2CC[C@]2(C)C(=O)CC[C@@H]32)C1 (stereo partly drawn)"
  inhibition / %: 94
- molecule: "C#C[C@]1(O)CC[C@H]2[C@@H]3CC[C@H]4C[C@@](O)(CN5CC(C)N(S(=O)(=O)c6ccccc6C(F)(F)F)CC5C)CC[C@]4(C)[C@H]3CC[C@@]21C (stereo partly drawn)"
  inhibition / %: 40
- molecule: "CC1CN(S(=O)(=O)c2ccccc2C(F)(F)F)C(C)CN1C[C@@]1(O)CC[C@@]2(C)[C@@H](CC[C@@H]3[C@@H]2CC[C@]2(C)C(=O)CC[C@@H]32)C1 (stereo partly drawn)"
  inhibition / %: 100

(P) CO[C@H]1CC[C@H]2[C@@H]3CC[C@H]4C[C@@](O)(CN5CC(C)N(S(=O)(=O)c6ccccc6C(F)(F)F)CC5C)CC[C@]4(C)[C@H]3CC[C@]12C (stereo partly drawn)
(Q) CC1CN(S(=O)(=O)c2ccccc2C(F)(F)F)C(C)CN1C[C@@]1(O)CC[C@@]2(C)[C@@H](CC[C@@H]3[C@@H]2CC[C@]2(C)C(=O)[C@H](O)C[C@@H]32)C1 (stereo partly drawn)
Task: Among P and Q , which shows a numerically higher inhibition result? Answer by stating the label of the chosen item.
Result: Q

(a) CC1CN(S(=O)(=O)c2ccccc2C(F)(F)F)C(C)CN1CC(O)c1ccc2c(c1)CC[C@@H]1[C@@H]2CC[C@]2(C)C(=O)CC[C@@H]12 (single isomer, unassigned; diastereomer A)
(b) CC1CN(S(=O)(=O)c2ccccc2C(F)(F)F)C(C)CN1C[C@@]1(O)CC[C@@]2(C)[C@@H](CC[C@@H]3[C@@H]2CC[C@]2(C)[C@@H](O)[C@H](O)C[C@@H]32)C1 (stereo partly drawn)
Task: Higher inhibition between a and b ? Your answer should be the label of the entry you select.
Result: a

(P) CC1CN(S(=O)(=O)c2ccccc2C(F)(F)F)C(C)CN1C[C@@]1(O)CC[C@@]2(C)[C@@H](CC[C@@H]3[C@@H]2CC[C@]2(C)[C@@H](O)[C@H](F)C[C@@H]32)C1 (stereo partly drawn)
(Q) CC1CN(S(=O)(=O)c2ccccc2C(F)(F)F)C(C)CN1C[C@@]1(O)CC[C@@]2(C)[C@@H](CC[C@@H]3[C@@H]2CC[C@@]2(C)[C@H]3CC[C@@]23CO3)C1 (stereo partly drawn)
Task: Return label of the item with the larger inhibition. Candidates: P , Q . # answer = label of selected item
Result: P
(P: 70%, Q: 20%)

====

targetOfAssay: 17-beta-hydroxysteroid dehydrogenase type 3 (Homo sapiens, UniProt P37058)
methodNotes: Inhibition of 17beta-HSD3 (unknown origin) expressed in human LNCAP cells assessed as reduction in [14C]-testosterone formation from [14C]-4-androstene-3,17-dione measured after 1 hr
Type: cell-based
observable: IC50 (nM)

- compound: "CC1CN(S(=O)(=O)c2ccccc2C(F)(F)F)C(C)CN1C[C@@]1(O)CC[C@@]2(C)[C@@H](CC[C@@H]3[C@@H]2CC[C@]2(C)C(=O)[C@H](F)C[C@@H]32)C1 (some centres undefined)"
  observable: "IC50"
  unitsLabel: "nM"
  recordedResult: 200
- compound: "CC1CN(S(=O)(=O)c2ccccc2C(F)(F)F)C(C)CN1CC(O)c1ccc2c(c1)CC[C@@H]1[C@@H]2CC[C@]2(C)C(=O)CC[C@@H]12 (single isomer, unassigned; diastereomer B)"
  observable: "IC50"
  unitsLabel: "nM"
  recordedResult: 20
- compound: "CC1CN(S(=O)(=O)c2ccccc2C(F)(F)F)C(C)CN1CC(F)c1ccc2c(c1)CC[C@@H]1[C@@H]2CC[C@]2(C)C(=O)CC[C@@H]12 (mixture of isomers)"
  observable: "IC50"
  unitsLabel: "nM"
  recordedResult: 250
- compound: "CC1CN(S(=O)(=O)c2ccccc2C(F)(F)F)C(C)CN1C[C@@]1(O)CC[C@@]2(C)[C@@H](CC[C@@H]3[C@@H]2CC[C@]2(C)/C(=N/O)CC[C@@H]32)C1 (some centres undefined)"
  observable: "IC50"
  unitsLabel: "nM"
  recordedResult: 220
- compound: "CC1CN(S(=O)(=O)c2ccccc2C(F)(F)F)C(C)CN1C[C@@]1(O)CC[C@@]2(C)[C@@H](CC[C@@H]3[C@@H]2CC[C@]2(C)[C@@H](O)CC[C@@H]32)C1 (some centres undefined)"
  observable: "IC50"
  unitsLabel: "nM"
  recordedResult: 190
- compound: "CC1CN(S(=O)(=O)c2ccccc2C(F)(F)F)C(C)CN1CC(O)c1ccc2c(c1)CC[C@@H]1[C@@H]2CC[C@]2(C)C(=O)CC[C@@H]12 (single isomer, unassigned; diastereomer A)"
  observable: "IC50"
  unitsLabel: "nM"
  recordedResult: 140

(P) CC1CN(S(=O)(=O)c2ccccc2C(F)(F)F)C(C)CN1C[C@@]1(O)CC[C@@]2(C)[C@@H](CC[C@@H]3[C@@H]2CC[C@]2(C)C(=O)CC[C@@H]32)C1 (some centres undefined)
(Q) CC(=O)[C@H]1CC[C@H]2[C@@H]3CC[C@H]4C[C@@](O)(CN5CC(C)N(S(=O)(=O)c6ccccc6C(F)(F)F)CC5C)CC[C@]4(C)[C@H]3CC[C@]12C (some centres undefined)
(R) CC1CN(S(=O)(=O)c2ccccc2C(F)(F)F)C(C)CN1C[C@@]1(O)CC[C@H]2[C@@H](CC[C@@H]3[C@@H]2CC[C@]2(C)C(=O)CC[C@@H]32)C1 (some centres undefined)
Task: Order these by IC50, descending, and give the full ranking. // ordering of labels required in reply
Result: Q, R, P

====

System: LAPC4
methodNotes: Androgenic activity in human LAPC4 cells expressing androgen receptor assessed as effect on cell proliferation at 0.5 uM supplemented with fresh medium containing compounds every 3 days for 7 days by MTS assay (reference value: 100%)
Format: ADME, cell-based
testParameters: lapc4, 168 h
Documented Activity across a set of compounds
I only need the number, in %, no unit after it.

- compound: "CC1CN(S(=O)(=O)c2ccccc2C(F)(F)F)C(C)CN1C[C@@]1(O)CC[C@@]2(C)[C@@H](CC[C@@H]3[C@@H]2CC[C@]2(C)[C@@H](O)[C@H](F)C[C@@H]32)C1 (stereo not given in full)"
  Activity / %: 149.7
- compound: "CC1CN(S(=O)(=O)c2ccccc2C(F)(F)F)C(C)CN1C[C@@]1(O)CC[C@@]2(C)[C@@H](CC[C@@H]3[C@@H]2CC[C@]2(C)C(=O)[C@H](O)C[C@@H]32)C1 (stereo not given in full)"
  Activity / %: 83.1
- compound: "C#C[C@]1(O)CC[C@H]2[C@@H]3CC[C@H]4C[C@@](O)(CN5CC(C)N(S(=O)(=O)c6ccccc6C(F)(F)F)CC5C)CC[C@]4(C)[C@H]3CC[C@@]21C (stereo not given in full)"
  Activity / %: 95.8
- compound: "CC1CN(S(=O)(=O)c2ccccc2C(F)(F)F)C(C)CN1CC(O)c1ccc2c(c1)CC[C@@H]1[C@@H]2CC[C@]2(C)C(=O)CC[C@@H]12 (single isomer, unassigned; diastereomer A)"
  Activity / %: 94.9
- compound: "CC1CN(S(=O)(=O)c2ccccc2C(F)(F)F)C(C)CN1C[C@@]1(O)CC[C@@]2(C)[C@@H](CC[C@@H]3[C@@H]2CC[C@]2(C)[C@@H](O)[C@H](O)C[C@@H]32)C1 (stereo not given in full)"
  Activity / %: 54.1
- compound: "CC(=O)[C@H]1CC[C@H]2[C@@H]3CC[C@H]4C[C@@](O)(CN5CC(C)N(S(=O)(=O)c6ccccc6C(F)(F)F)CC5C)CC[C@]4(C)[C@H]3CC[C@]12C (stereo not given in full)"
  Activity / %: 26.4
- compound: "CC1CN(S(=O)(=O)c2ccccc2C(F)(F)F)C(C)CN1C[C@@]1(O)CC[C@@]2(C)[C@@H](CC[C@@H]3[C@@H]2CC[C@@]2(C)[C@H]3CC[C@@]23CO3)C1 (stereo not given in full)"
  Activity / %: 61.2
- compound: "CC1CN(S(=O)(=O)c2ccccc2C(F)(F)F)C(C)CN1C[C@@]1(O)CC[C@H]2[C@@H](CC[C@@H]3[C@@H]2CC[C@]2(C)C(=O)CC[C@@H]32)C1 (stereo not given in full)"
  Activity / %: 66.3
- compound: "CC1CN(S(=O)(=O)c2ccccc2C(F)(F)F)C(C)CN1C[C@@]1(O)CC[C@@]2(C)[C@@H](CC[C@@H]3[C@@H]2CC[C@]2(C)C(=O)[C@H](F)C[C@@H]32)C1 (stereo not given in full)"
  Activity / %: 134.2

Task: Provide Activity value for the following compound: CC1CN(S(=O)(=O)c2ccccc2C(F)(F)F)C(C)CN1C[C@@]1(O)CC[C@@]2(C)[C@@H](CC[C@@H]3[C@@H]2CC[C@]2(C)[C@@H](O)CC[C@@H]32)C1 (stereo not given in full)
Result: 88.1
